Molecular target: human SCD1 (Homo sapiens (Human))
Sequence (O00767 whole entry): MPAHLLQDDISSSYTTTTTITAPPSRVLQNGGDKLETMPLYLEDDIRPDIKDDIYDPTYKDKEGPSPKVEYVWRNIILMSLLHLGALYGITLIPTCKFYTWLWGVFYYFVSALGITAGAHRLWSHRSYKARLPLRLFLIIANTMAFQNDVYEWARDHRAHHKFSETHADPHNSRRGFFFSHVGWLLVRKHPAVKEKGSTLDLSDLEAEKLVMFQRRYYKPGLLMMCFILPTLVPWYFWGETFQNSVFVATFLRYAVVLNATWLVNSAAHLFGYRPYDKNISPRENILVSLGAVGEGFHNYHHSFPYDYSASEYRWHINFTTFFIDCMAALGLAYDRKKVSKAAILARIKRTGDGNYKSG
Experiment: Yeast growth assay, strain expressing human SCD1 as the sole desaturase (reduced growth as surrogate for SCD inhibition)
Conditions: yeast with OLE1 deleted expressing human SCD1 from a plasmid; growth read as OD600 after 40 h at 30° C.; top drug concentration 33.3 μM
Experimental: Strains expressing SCD1 or SCD5 as the sole desaturase, the human SCD1 and SCD5 genes were used to evaluate inhibition of SCD1/SCD5 using reduced growth as a surrogate for SCD inhibition. […] After yeast delivery, assay plates were incubated under humidified conditions at 30° C. for 40 h. Yeast growth was monitored by reading the OD600 of each well using a microplate reader (Perkin Elmer EnVision™).
property.measured: IC50

Cc1nn(Cc2ccccc2)c(C)c1NC(=O)c1cc(-c2ccco2)on1 :: 32.8 µM
CC1CN(c2ccccc2)CCN1C(=O)c1cc(-c2ccc3c(c2)OCO3)on1 (stereo not drawn) :: > 45 µM
O=C(c1cc(-c2ccc3c(c2)OCO3)on1)N1CCCC1c1ccc(Br)cc1 (stereo not drawn) :: > 45 µM
O=C(c1cc(-c2ccc3c(c2)OCO3)on1)N1C[C@@H](O)C[C@H]1c1ccccc1 :: > 45 µM
CN1CCC(C2CCCN2C(=O)c2cc(-c3ccc4c(c3)OCO4)on2)CC1 (stereo not drawn) :: > 45 µM
Cc1nn(C)c2cc(-c3cc(CN4C(=O)OCC4c4ccccc4)no3)ccc12 (stereo not drawn) :: > 45 µM
O=C(c1cc(-c2ccccc2)on1)N1CCCC1c1ccccc1 (stereo not drawn) :: > 45 µM
O=C(c1cc(-c2ccccc2)on1)N1CC2(C1)CC(O)(c1ccccc1)C2 :: 12 µM
O=C(c1cc(CC2CC2)on1)N1CCCC1c1ccccc1 (stereo not drawn) :: 30 µM
O=C(Nc1cnn(Cc2cccc(F)c2)c1)c1cc(-c2cccnc2)on1 :: 0.59 µM
COc1ccc(C2CCCN2C(=O)c2cc(-c3ccc4ncoc4c3)on2)cc1 (stereo not drawn) :: > 45 µM
O=C(Nc1cnn(Cc2cc(F)ccc2C(F)(F)F)c1)c1cc(-c2ccccc2)on1 :: > 45 µM
O=C(Nc1cnn(Cc2cnccc2C(F)(F)F)c1)c1cc(-c2cnco2)on1 :: 19 µM
O=C(c1cc(-c2ccccc2)on1)N1CC2(CNC2)C1 :: > 45 µM
O=C(c1cc(-c2ccccc2)on1)N1CCC2(CCNC2)C1 (stereo not drawn) :: > 45 µM
COCc1ncc(-c2cc(C(=O)Nc3cnn(Cc4ccccc4)c3)no2)s1 :: 5.12 µM
O=C(c1cc(-c2ccc(F)cn2)on1)N1CC(c2ccccc2)C1 :: 1.6 µM
COc1cccc(C2CCCN2C(=O)c2cc(-c3ccc4c(c3)OCO4)on2)c1 (stereo not drawn) :: > 45 µM
O=C(c1cc(-c2ccccc2C(F)(F)F)on1)N1CCC(c2ccccc2)C1 (stereo not drawn) :: > 45 µM
O=C(Nc1cnn(CC2CCOCC2)c1)c1cc(-c2ccco2)on1 :: > 45 µM
N#Cc1ccccc1C1CCCN1C(=O)c1cc(-c2ccc3c(c2)OCO3)on1 (stereo not drawn) :: > 45 µM
O=C(Nc1cnn(Cc2ccccc2)c1)c1cc(-c2ccc(F)cn2)on1 :: > 45 µM
O=C(Nc1cnn(Cc2cccc(F)c2)c1)c1cc(-c2ccccn2)on1 :: 2.04 µM
Cc1nn(C)c2cc(-c3conc3CN3C(=O)OCC3c3ccccc3)ccc12 (stereo not drawn) :: > 45 µM
CC(C)c1cc(C(=O)Nc2cnn(CC34CCC(CC3)CC4)c2)no1 :: > 45 µM
COc1ccc(Cn2cc(NC(=O)c3cc(-c4ccccc4)on3)cn2)cc1 :: > 45 µM
CN1CCN(c2cc(C(=O)Nc3cnn(Cc4ccccc4)c3)no2)CC1 :: > 45 µM
N#Cc1ccc(-c2cc(C(=O)N3CCC[C@H]3c3ccccc3)no2)nc1 :: > 45 µM
COc1ccc(C2CCCN2C(=O)c2cc(-c3cccc(OC)c3)on2)cc1 (stereo not drawn) :: > 45 µM
Cn1cc2ccc(-c3cc(C(=O)N4CC(c5ccccc5)C4)no3)cc2n1 :: > 45 µM

Reference for the values: patent US10919885B2
